assay: Intravenous/oral pharmacokinetics and tissue distribution in mice; assay type: in vivo; details: female, ICR, mouse, plasma, iv, 10 mg/kg i.v., read-out: AUC0-t(last)

COMPOUND: O=C(N[C@@H](Cc1ccccn1)C(=O)N[C@@H](CCc1ccccc1)B(O)O)c1cnccn1 [Compound 58]
AUC(0-t): 20800 ng·h/mL

---

biological target: Papain (Carica papaya, UniProt P00784); construct: Reaction Biology Corporation (contract testing); assay: Protease panel: Papain; format: biochemical; settings: supplement panel table, test and control compound
Sequence (P00784 134-345): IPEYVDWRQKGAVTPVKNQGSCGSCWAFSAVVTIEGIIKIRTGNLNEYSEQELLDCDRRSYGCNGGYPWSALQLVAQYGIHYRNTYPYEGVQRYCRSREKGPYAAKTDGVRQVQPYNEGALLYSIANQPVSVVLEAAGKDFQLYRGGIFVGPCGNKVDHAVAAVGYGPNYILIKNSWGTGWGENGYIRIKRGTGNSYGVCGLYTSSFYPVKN
ENDPOINT: IC50 (µM)

COMPOUND_STRUCTURE: CC(C)C[C@H](NC(=O)[C@H]1O[C@@H]1C(=O)O)C(=O)NCCCCN=C(N)N
ASSAY_TARGET: Papain (Carica papaya, UniProt P00784)
ENDPOINT: IC50
MEASURED_VALUE: 0.000936

---

biological target: ADAM10 (Homo sapiens, UniProt O14672); construct: Reaction Biology Corporation (contract testing); test: Protease panel: ADAM10; type: biochemical; conditions: supplement panel table, test and control compound
Sequence (O14672 214-748, species assumed): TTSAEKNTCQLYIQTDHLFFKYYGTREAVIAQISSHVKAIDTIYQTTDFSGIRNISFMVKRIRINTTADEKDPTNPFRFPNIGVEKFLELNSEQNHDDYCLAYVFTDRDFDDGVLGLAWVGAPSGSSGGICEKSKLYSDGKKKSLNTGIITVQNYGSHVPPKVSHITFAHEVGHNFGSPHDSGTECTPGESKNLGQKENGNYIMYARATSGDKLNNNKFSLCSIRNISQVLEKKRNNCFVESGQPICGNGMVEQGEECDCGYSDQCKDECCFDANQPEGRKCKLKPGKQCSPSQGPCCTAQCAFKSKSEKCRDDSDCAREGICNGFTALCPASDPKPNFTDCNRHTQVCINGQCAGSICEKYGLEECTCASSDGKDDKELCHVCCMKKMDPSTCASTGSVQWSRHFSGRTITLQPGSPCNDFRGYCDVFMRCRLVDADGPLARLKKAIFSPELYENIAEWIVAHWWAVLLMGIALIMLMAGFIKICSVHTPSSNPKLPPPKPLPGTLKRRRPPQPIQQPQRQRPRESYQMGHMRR

COMPOUND: CNC(=O)[C@H](Cc1c[nH]c2ccccc12)NC(=O)[C@@H](CC(=O)NO)CC(C)C [GM6001]
IC50, µM: 0.0811

---

test: Intravenous/oral pharmacokinetics and tissue distribution in mice; assay type: in vivo; conditions: female, ICR, mouse, po, 100 mg/kg p.o., plasma, read-out: T½, Plasma (converted)

COMPOUND: O=C(N[C@@H](Cc1ccccn1)C(=O)N[C@@H](CCc1ccccc1)B(O)O)c1cnccn1 [Compound 58]
half-life, min: 12

---

biological target: FXa (Homo sapiens); construct: FXa serine peptidase; experiment: Protease panel: FXa; type: biochemical; conditions: supplement panel table, test and control compound
Sequence (P00742 235-488 limits assumed): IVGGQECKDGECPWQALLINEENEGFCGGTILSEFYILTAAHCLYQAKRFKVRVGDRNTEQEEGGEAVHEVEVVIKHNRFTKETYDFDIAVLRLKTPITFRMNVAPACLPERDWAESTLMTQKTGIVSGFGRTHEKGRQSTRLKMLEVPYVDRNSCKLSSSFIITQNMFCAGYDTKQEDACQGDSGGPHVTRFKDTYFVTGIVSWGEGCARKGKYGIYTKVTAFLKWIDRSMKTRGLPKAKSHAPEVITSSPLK
Sequence (P00742 41-179 partner limits assumed): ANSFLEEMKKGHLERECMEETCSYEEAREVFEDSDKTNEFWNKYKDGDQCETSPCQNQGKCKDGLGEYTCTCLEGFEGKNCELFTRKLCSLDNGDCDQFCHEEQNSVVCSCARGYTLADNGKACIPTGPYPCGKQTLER
Where a name gives a salt, the structure may show the parent alone.

COMPOUND: CCOC(=O)c1ccc(OC(=O)CCCCCN=C(N)N)cc1 [Gabexate mesylate (GM), Gabexate mesylate]
ASSAY_TARGET: FXa (Homo sapiens)
IC50, µM: 5.3

---

Below, each entry is listed with its recorded IC50.
target: HepG2 proteasome (Homo sapiens, UniProt P20618+P28074); assay: Cell-based proteasome CT-like peptidase inhibition assay (Proteasome-Glo)
ENDPOINT: IC50 (nM)

COMPOUND: CC(C)C[C@H](NC(=O)[C@H](Cc1ccccc1)NC(=O)c1cnc(-c2ccccc2)nc1)B(O)O (mixture of isomers) [Compound 38]
MEASURED_VALUE: 6

COMPOUND: CC(C)C[C@H](NC(=O)[C@H](Cc1ccccc1)NC(=O)Cc1ccccc1)B(O)O (mixture of isomers) [Compound 34]
MEASURED_VALUE: 6

COMPOUND: CC(C)C[C@H](NC(=O)CCc1ccccc1)B(O)O [Compound 25]
MEASURED_VALUE: 250

COMPOUND: CC(C)C[C@H](NC(=O)[C@H](Cc1ccccc1)NC(=O)c1cccnc1)B(O)O [Compound 36]
MEASURED_VALUE: 30

---

assay: MTS cytotoxicity assay, Vero; format: cell-based; settings: African green monkey

MOLECULE: CC(C)C[C@H](NC(=O)[C@H](Cc1ccccc1)NC(=O)c1cnccn1)B(O)O [Compound 1, bortezomib, reference compound]
GI50 [µM]: 250

---

Experiment: Thermodynamic aqueous solubility
Type: physicochemical
Details: aqueous solution at pH 4, aqueous buffer, thermodynamic from solid; thermodynamic, pH 4; read-out: Aq solubility (μg/ml) at pH 4
Protocol: A parallel artificial-membrane permeability assay (PAMPA) and mouse liver microsome (MLM), human liver microsome (HLM), aqueous solubility, Log D, protein binding, and cytochrome P450 2D6 and 3A4 assays were carried out at Piramal Pharma Solutions.

COMPOUND: O=C(N[C@@H](Cc1ccccn1)C(=O)N[C@@H](CCc1ccccc1)B(O)O)c1cnccn1 [Compound 58]
solubility: 422 µg/mL

---

biological target: Proteinase K (Parengyodontium album); construct: Reaction Biology Corporation (contract testing); test: Protease panel: Proteinase K; type: biochemical; settings: supplement panel table, test and control compound
Sequence (P06873 106-384): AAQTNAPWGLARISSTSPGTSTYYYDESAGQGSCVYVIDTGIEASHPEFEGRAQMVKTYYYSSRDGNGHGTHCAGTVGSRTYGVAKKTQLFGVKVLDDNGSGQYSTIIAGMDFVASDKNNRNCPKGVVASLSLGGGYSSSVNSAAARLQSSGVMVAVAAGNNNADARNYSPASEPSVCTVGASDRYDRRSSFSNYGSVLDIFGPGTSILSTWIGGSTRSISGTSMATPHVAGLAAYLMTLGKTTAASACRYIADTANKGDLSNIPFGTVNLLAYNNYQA

COMPOUND: O=C(N[C@@H](Cc1ccccn1)C(=O)N[C@@H](CCc1ccccc1)B(O)O)c1cnccn1 [Compound 58]
IC50 (µM): 0.352

---

experiment: MTS cytotoxicity assay, HepG2; assay type: cell-based, human; details: human; MTS assay; read-out: GI50, HepG2 cells
ENDPOINT: GI50 (µM)

COMPOUND: O=C(N[C@@H](Cc1ccccn1)C(=O)N[C@@H](CCc1ccccc1)B(O)O)c1cnccn1 [Compound 58]
MEASURED_VALUE: 500

---

biological target: Plasmin (Homo sapiens, UniProt P00747); construct: Reaction Biology Corporation (contract testing); test: Protease panel: Plasmin; assay type: biochemical; details: supplement panel table, test and control compound
Sequence (P00747 581-810 limits assumed, species assumed): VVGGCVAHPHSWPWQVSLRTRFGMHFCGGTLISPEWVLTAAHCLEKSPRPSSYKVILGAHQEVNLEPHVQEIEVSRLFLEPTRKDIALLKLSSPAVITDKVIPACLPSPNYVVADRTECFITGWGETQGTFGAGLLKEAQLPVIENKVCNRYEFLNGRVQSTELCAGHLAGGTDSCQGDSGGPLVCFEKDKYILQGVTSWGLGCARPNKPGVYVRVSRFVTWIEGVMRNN
Sequence (P00747 97-580 partner limits assumed, species assumed): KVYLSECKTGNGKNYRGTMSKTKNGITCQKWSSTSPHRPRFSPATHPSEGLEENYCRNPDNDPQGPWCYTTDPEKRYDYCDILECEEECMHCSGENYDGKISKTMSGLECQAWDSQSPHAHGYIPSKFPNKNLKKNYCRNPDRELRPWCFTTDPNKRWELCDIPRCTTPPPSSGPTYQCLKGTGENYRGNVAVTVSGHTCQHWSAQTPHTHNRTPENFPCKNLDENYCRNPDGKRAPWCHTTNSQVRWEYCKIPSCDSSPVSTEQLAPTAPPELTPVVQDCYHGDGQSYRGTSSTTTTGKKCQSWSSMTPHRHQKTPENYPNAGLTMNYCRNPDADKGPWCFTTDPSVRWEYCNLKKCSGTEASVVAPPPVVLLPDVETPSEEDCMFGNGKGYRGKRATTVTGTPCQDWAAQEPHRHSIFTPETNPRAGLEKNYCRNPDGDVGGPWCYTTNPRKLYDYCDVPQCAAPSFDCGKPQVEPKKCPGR
Counter-ions that a name gives are not always drawn.

MOLECULE: CCOC(=O)c1ccc(OC(=O)CCCCCN=C(N)N)cc1 [Gabexate mesylate (GM), Gabexate mesylate]
IC50: 0.936 µM

---

assay: Mouse liver microsome stability; format: in vitro ADME; conditions: liver microsomes, read-out: MLM t1/2

COMPOUND: O=C(N[C@@H](Cc1ccccn1)C(=O)N[C@@H](CCc1ccccc1)B(O)O)c1cnccn1 [Compound 58]
half-life: ~8 min

---

test system: M. tuberculosis H37Rv; assay: microbe, parasite or virus in culture; type: cell-based; conditions: Mycobacterium tuberculosis, H37RV, 120 h; 5 days; read-out: MIC90 (μM) against M. tuberculosis H37Rv
Hi! Could you tag entries with MIC90 below 6 µM as condition met, and those at or above as condition not met? Much appreciated.

MOLECULE: CC(C)C[C@H](NC(=O)[C@H](Cc1ccccc1)NC(=O)c1cnccn1)B(O)O [Compound 1, bortezomib, reference compound]
ANSWER_LABEL: condition not met
//
MOLECULE: O=C(N[C@@H](Cc1ccc(O)cc1)C(=O)N[C@@H](CCc1ccccc1)B(O)O)c1cnccn1
ANSWER_LABEL: condition met
//
MOLECULE: O=C(N[C@@H](Cc1ccccc1)C(=O)N[C@@H](CCc1ccccc1)B(O)O)c1cnccn1
ANSWER_LABEL: condition not met
//
MOLECULE: O=C(N[C@@H](Cc1ccccc1)C(=O)N[C@@H](Cc1ccccc1)B(O)O)c1cnccn1
ANSWER_LABEL: condition not met

---

molecular target: UniProt:P07711; assay: Protease panel: Cathepsin L; type: biochemical; conditions: supplement panel table, test and control compound
Sequence (P07711 114-333, species assumed): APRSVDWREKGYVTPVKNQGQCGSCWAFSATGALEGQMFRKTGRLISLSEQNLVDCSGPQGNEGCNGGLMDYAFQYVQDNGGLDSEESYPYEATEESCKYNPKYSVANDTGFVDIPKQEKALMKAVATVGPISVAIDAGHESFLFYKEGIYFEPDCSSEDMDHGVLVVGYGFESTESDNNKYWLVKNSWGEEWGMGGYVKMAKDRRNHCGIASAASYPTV
ENDPOINT: IC50 (µM)

COMPOUND: CC(C)C[C@H](NC(=O)[C@H]1O[C@@H]1C(=O)O)C(=O)NCCCCN=C(N)N [Compound E64]
ASSAY_TARGET: UniProt:P07711
SCALE_UNIT: µM
MEASURED_VALUE: 0.00999

---

biological target: MMP 3 (Homo sapiens); test: Protease panel: MMP 3; type: biochemical; conditions: supplement panel table, test and control compound
Sequence (P08254 100-477, species assumed): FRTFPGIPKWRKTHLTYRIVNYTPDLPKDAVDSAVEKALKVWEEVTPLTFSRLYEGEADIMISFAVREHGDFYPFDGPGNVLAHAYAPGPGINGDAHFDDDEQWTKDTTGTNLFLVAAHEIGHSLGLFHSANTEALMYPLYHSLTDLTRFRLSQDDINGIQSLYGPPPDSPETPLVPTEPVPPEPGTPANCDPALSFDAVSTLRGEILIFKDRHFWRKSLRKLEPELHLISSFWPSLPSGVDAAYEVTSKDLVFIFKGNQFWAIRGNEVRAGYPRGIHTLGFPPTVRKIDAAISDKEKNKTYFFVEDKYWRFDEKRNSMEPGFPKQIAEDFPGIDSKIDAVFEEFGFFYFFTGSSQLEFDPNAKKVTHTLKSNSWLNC
ENDPOINT: IC50 (µM)

COMPOUND_STRUCTURE: CNC(=O)[C@H](Cc1c[nH]c2ccccc12)NC(=O)[C@@H](CC(=O)NO)CC(C)C
ENDPOINT: IC50
MEASURED_VALUE: 0.0163

---

biological target: TACE (Homo sapiens, UniProt P78536)
Sequence (P78536 215-824): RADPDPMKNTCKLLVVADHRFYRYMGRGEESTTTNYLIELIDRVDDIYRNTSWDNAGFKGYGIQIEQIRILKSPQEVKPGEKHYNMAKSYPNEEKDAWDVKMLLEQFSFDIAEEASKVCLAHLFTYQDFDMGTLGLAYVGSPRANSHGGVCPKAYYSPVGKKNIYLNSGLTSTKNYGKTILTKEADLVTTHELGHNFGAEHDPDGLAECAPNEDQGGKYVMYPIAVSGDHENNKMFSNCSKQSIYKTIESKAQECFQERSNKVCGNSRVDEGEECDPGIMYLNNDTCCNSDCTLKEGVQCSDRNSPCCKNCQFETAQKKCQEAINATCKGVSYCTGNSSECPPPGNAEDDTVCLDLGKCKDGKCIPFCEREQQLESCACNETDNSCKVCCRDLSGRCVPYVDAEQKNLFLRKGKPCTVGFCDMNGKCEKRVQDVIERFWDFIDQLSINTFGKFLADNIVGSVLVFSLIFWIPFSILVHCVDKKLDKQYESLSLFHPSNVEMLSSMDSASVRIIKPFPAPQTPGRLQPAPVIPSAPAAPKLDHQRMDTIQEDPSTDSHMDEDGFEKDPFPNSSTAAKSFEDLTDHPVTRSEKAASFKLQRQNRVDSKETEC

COMPOUND_STRUCTURE: CNC(=O)[C@H](Cc1c[nH]c2ccccc12)NC(=O)[C@@H](CC(=O)NO)CC(C)C
IC50 (nM): 9.1

---

test: Log D (octanol/PBS); assay type: physicochemical; conditions: pH 7.4, read-out: Log D (measured at pH 7.4)

COMPOUND_STRUCTURE: O=C(N[C@@H](Cc1ccccn1)C(=O)N[C@@H](CCc1ccccc1)B(O)O)c1cnccn1
logD: 2.96

---

assay: MTS cytotoxicity assay, HepG2; format: cell-based, human; settings: human
ENDPOINT: GI50 (µM)

COMPOUND: CC(C)C[C@H](NC(=O)[C@H](Cc1ccccc1)NC(=O)c1cnccn1)B(O)O [Compound 1, bortezomib, reference compound]
MEASURED_VALUE: 400

---

experiment: Intravenous/oral pharmacokinetics and tissue distribution in mice; assay type: in vivo; settings: female, ICR, mouse, po, 100 mg/kg p.o., plasma, read-out: AUC0-inf, Plasma
ENDPOINT: AUC(0-inf)

COMPOUND: O=C(N[C@@H](Cc1ccccn1)C(=O)N[C@@H](CCc1ccccc1)B(O)O)c1cnccn1 [Compound 58]
ENDPOINT: AUC(0-inf)
MEASURED_VALUE: 23600 ng·h/mL

---

Below, each entry is listed with its recorded pIC50.
target: HepG2 proteasome (Homo sapiens, UniProt P20618+P28074); assay: Cell-based proteasome CT-like peptidase inhibition assay (Proteasome-Glo)
pIC50: −log10 of the molar value.

COMPOUND_STRUCTURE: CC(C)C[C@H](NC(=O)[C@H](Cc1ccccc1)NC(=O)c1ccccn1)B(O)O
pIC50: 8.22

COMPOUND_STRUCTURE: CC(C)(C(=O)N[C@@H](Cc1ccccc1)C(=O)N[C@@H](CCc1ccccc1)B(O)O)n1cccc1
pIC50: 6.30

COMPOUND_STRUCTURE: O=C(N[C@@H](Cc1ccccn1)C(=O)N[C@@H](CCc1ccccc1)B(O)O)c1cnccn1
pIC50: 6.44

COMPOUND_STRUCTURE: O=C(N[C@@H](Cc1ccccc1)C(=O)N[C@@H](CCC1CCCCC1)B(O)O)c1ccccc1F
pIC50: 6.30
